Origin of values: BindingDB's records for doi:10.1016/j.ejmech.2017.04.013

target entity: Histone deacetylase 8 (Homo sapiens) (UniProt Q9BY41)
Sequence (Q9BY41 whole entry, looked up): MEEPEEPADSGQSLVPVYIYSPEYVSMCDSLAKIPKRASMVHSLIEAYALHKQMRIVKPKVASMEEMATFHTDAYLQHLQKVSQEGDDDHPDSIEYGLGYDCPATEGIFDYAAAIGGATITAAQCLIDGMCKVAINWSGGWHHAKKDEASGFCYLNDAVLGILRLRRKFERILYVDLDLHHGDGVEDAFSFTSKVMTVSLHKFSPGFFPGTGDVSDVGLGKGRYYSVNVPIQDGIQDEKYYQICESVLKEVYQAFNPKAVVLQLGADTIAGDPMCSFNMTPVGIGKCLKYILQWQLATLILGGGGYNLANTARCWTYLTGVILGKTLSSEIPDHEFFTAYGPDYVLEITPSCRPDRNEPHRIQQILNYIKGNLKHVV
procedure summary: Inhibition of recombinant human HDAC8 using Boc-Lys (Ac)-AMC substrate by fluorescence assay
reported endpoint: pIC50
Reminder that pIC50 is minus the log10 of a molar concentration.

Data request, read-out pIC50, for O=C(NO)c1ccc(Cn2cc(-c3ccc(CN4CCCC4)cc3)nn2)cc1
6.55
